Tested on: biotinyl-Trp-oxazolone
assay.text: self-aminoacylation, catalytic enhancement (BWO) (fold over background); higher = more active; k-Seq, kA / k0A0; sequences stand for … in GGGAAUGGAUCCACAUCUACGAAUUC…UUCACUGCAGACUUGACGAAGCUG
This sample holds only a part of the variants without activity.
measured.metric: self-aminoacylation
Keep the answer to the number alone.

For orientation, consider the following solved cases.
{"columns": ["sequence.code", "observed.measurement"],
 "data": [
  ["AUUACCCUGGUCUCCGAGUGA [Fam2.1 aminoacylation ribozyme variant]", 9.46],
  ["AUUACCCUAGUAAUCGAGUGA [Fam2.1 aminoacylation ribozyme variant]", 9.47],
  ["AUUGACCUAGGUCAGCGGGUG [Fam2.2 aminoacylation ribozyme variant]", 3.29]
]}

-- ask # get_value(readout='self-aminoacylation', item= AAGUUUGGUAAUACUCGCAAG [Fam3.1 aminoacylation ribozyme variant] )
-- reply 0.719

Where do the numbers come from? From the supplement of paper PMC9233669.
